- targetDesc: DDR1 kinase (Homo sapiens)
- Sequence (Q08345 19-876 isoform Q08345-2 limits assumed): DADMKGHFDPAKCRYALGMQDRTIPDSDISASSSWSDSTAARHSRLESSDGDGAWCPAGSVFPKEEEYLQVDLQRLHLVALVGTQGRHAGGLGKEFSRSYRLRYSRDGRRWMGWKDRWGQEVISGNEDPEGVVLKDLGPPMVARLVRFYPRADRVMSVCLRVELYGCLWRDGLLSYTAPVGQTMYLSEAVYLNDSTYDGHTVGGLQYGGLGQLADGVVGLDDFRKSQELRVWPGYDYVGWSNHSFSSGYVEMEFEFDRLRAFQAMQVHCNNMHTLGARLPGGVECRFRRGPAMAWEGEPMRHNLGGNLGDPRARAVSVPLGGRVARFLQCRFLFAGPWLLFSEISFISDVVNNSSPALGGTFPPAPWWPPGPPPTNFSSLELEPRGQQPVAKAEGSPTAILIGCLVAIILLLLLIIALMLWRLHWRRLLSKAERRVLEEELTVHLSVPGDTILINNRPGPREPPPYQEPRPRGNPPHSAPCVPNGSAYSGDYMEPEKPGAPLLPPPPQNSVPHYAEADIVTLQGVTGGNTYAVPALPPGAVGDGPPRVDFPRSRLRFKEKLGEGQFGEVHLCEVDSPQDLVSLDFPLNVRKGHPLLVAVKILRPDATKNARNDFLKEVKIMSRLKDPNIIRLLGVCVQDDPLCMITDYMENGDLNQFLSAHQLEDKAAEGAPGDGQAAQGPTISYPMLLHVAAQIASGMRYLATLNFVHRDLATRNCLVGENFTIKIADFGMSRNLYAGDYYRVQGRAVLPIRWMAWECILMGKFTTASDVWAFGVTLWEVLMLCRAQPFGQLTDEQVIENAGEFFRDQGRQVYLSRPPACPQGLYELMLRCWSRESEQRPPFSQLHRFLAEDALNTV
- testDetails: Evaluation of DDR1 kinase inhibition (LANCE Ultra TR-FRET kinase assay)
- Format: biochemical
- Design: purchased Carna Biosciences 08-113
- recordedConditions: DDR1 protein 0.5 nM, LANCE Ultra ULight-poly GAT substrate, 2 hours at room temperature, duplicate; read-out: DDR-1 IC50
Counter-ions that a name gives are not always drawn.
measuredMetric: IC50 (nM)

Worked set:
{"molecule": "C[C@H]1COC[C@H](C)N1C(=O)Cn1nc(C2CN(C(=O)c3cc(N)ncc3F)C2)c2c(F)cc(F)cc21", "targetDesc": "DDR1 kinase (Homo sapiens)", "measuredMetric": "IC50", "unitName": "nM", "valueObserved": 12}
{"molecule": "Nc1cc(C(=O)N2CC(c3nn(CC(=O)N4CCC(F)(F)CC4)c4ccccc34)C2)c(F)cn1", "targetDesc": "DDR1 kinase (Homo sapiens)", "measuredMetric": "IC50", "unitName": "nM", "valueObserved": 13}

I. Nc1cc(C(=O)N2CC(c3nn(CC(=O)N4CCC[C@H]4C(F)(F)F)c4cncc(F)c34)C2)ccn1 [Compound E-54, hydrochloride]
II. Cc1ccc2c(c1)c(C1CN(C(=O)c3ccnc(N)n3)C1)nn2CC(=O)N(C)CC(F)(F)F
Request: Form field 'greater IC50' accepts I or II ; which applies? Please reply using the label of the selected record.
Result: II
(II: 14 nM, I: 6.2 nM)
